Target: 15-PGDH/HPGD (Homo sapiens)
Sequence (P15428 whole entry): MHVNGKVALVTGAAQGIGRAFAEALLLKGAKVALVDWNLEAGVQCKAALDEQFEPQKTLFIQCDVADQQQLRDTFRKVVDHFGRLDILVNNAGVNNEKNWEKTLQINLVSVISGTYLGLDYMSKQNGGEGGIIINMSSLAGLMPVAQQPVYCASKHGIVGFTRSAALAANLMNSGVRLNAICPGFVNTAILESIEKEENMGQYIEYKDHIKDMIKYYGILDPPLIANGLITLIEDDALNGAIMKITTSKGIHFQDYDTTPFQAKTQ
Assay: hPGDH inhibitor screening biochemical assay
Conditions: 10 nM enzyme, 15 μM Prostaglandin E2, 0.25 mM NAD, fluorescence ex/em 340/485 nm
pIC50: −log10 of the molar value.
Kindly state pIC50 for each of the entries shown.

Enquiry: Identify measured pIC50 corresponding to C[C@H]1C[C@@H](OC[C@H](O)c2cnc3c(cnn3-c3ccc(C(=O)O)cc3)c2)C1 [Compound 127A]
Return: > 7.00

Enquiry: Identify measured pIC50 corresponding to CCCC[C@H](O)c1cnc2c(ccn2-c2cc(Cl)cc(-c3nnc[nH]3)c2)c1 [Compound 17B]
Return: > 7.00

Enquiry: Identify measured pIC50 corresponding to CC(C)OCC[C@@H](O)c1cnc2c(ccn2-c2cccc(-c3nnc[nH]3)c2)c1 [Compound 41B]
Return: > 7.00

Enquiry: Identify measured pIC50 corresponding to Cc1cc(-n2ncc3cc([C@@H](O)COC4CCC4)cnc32)ccc1C(=O)O [Compound 95A]
Return: > 7.00

Enquiry: Identify measured pIC50 corresponding to O=C(NC[C@H](O)c1cnc2c(cnn2-c2cccc(-c3nnc[nH]3)c2)c1)C1CC1 [Compound 39A]
Return: ≤ 6.00

Enquiry: Identify measured pIC50 corresponding to CC(C)(O)[C@@H](O)c1cnc2c(cnn2-c2cccc(-c3nnc[nH]3)c2)c1 [Compound 33B]
Return: 6.00 to 7.00

Enquiry: Identify measured pIC50 corresponding to CC(C)OC[C@@H](O)c1cnc2c(cnn2-c2ccc(OCC(=O)O)c(F)c2)c1 [Compound 74A]
Return: > 7.00

Enquiry: Identify measured pIC50 corresponding to CC1(OC[C@@H](O)c2cnc3c(cnn3-c3ccc(C(=O)O)cc3)c2)CC1 [Compound 92B]
Return: > 7.00

Enquiry: Identify measured pIC50 corresponding to CC(F)(F)[C@H](O)c1cnc2c(ccn2-c2cccc(-c3nnc[nH]3)c2)c1
Return: 6.00 to 7.00

Enquiry: Identify measured pIC50 corresponding to CC(F)(F)[C@@H](O)c1cnc2c(ccn2-c2cccc(-c3nnc[nH]3)c2)c1
Return: > 7.00

Enquiry: Identify measured pIC50 corresponding to O[C@@H](c1cnc2c(cnn2-c2cccc(-c3nnc[nH]3)c2)c1)[C@H]1CCOC1 [Compound 68C]
Return: > 7.00

Enquiry: Identify measured pIC50 corresponding to C[C@H]1C[C@H](OC[C@H](O)c2cnc3c(cnn3-c3ccc(C(=O)O)cc3)c2)C1 [Compound 127C]
Return: 6.00 to 7.00

Enquiry: Identify measured pIC50 corresponding to C[S+]([O-])c1ccc(-n2ncc3cc([C@@H](O)COC4CCC4)cnc32)cc1 (some centres unmarked) [Compound 124A]
Return: > 7.00

Enquiry: Identify measured pIC50 corresponding to Cc1nn(-c2ccc(C(=O)O)cc2)c2ncc([C@H](O)COC3CCC3)cc12 [Compound 109B]
Return: > 7.00

Enquiry: Identify measured pIC50 corresponding to Cc1nn(-c2ccc(C(=O)O)cc2)c2ncc([C@@H](O)COC3CC3)cc12 [Compound 126A]
Return: > 7.00

Enquiry: Identify measured pIC50 corresponding to O[C@@H](c1cnc2c(cnn2-c2cccc(-c3nnc[nH]3)c2)c1)C1CCOCC1 [Compound 52B]
Return: > 7.00

Enquiry: Identify measured pIC50 corresponding to CCCCC(OC)c1cnc2c(ccn2-c2cc(Cl)cc(-c3nnc[nH]3)c2)c1 (centres unmarked)
Return: 6.00 to 7.00

Enquiry: Identify measured pIC50 corresponding to OC1(c2cnc3c(ccn3-c3cc(Cl)cc(-c4nnc[nH]4)c3)c2)CCCC1
Return: 6.00 to 7.00

Enquiry: Identify measured pIC50 corresponding to CC(C)OC[C@H](O)c1cnc2c(cnn2-c2ccc(CCCC(=O)O)cc2)c1 [Compound 66B]
Return: 6.00 to 7.00

Enquiry: Identify measured pIC50 corresponding to CCCOC(C)(C)[C@H](O)c1cnc2c(cnn2-c2cccc(-c3nnc[nH]3)c2)c1 [Compound 57A]
Return: ≤ 6.00

Enquiry: Identify measured pIC50 corresponding to O[C@H](COC1CC1)c1cnc2c(cnn2-c2cccc(-c3nnc[nH]3)c2)c1 [Compound 37B]
Return: > 7.00

Enquiry: Identify measured pIC50 corresponding to COC1([C@H](O)c2cnc3c(cnn3-c3cccc(-c4nnc[nH]4)c3)c2)CCC1 [Compound 65B]
Return: ≤ 6.00

Enquiry: Identify measured pIC50 corresponding to CCNCC(O)c1cnc2c(cnn2-c2cccc(-c3nnc[nH]3)c2)c1 (centres unmarked)
Return: ≤ 6.00

Enquiry: Identify measured pIC50 corresponding to O[C@@H](COC1CC1)c1cnc2c(ccn2-c2cccc(-c3nnc[nH]3)c2)n1 [Compound 38B]
Return: > 7.00

Enquiry: Identify measured pIC50 corresponding to CC(C)(O)CC[C@@H](O)c1cnc2c(cnn2-c2cccc(-c3nnc[nH]3)c2)c1 [Compound 56B]
Return: > 7.00

Enquiry: Identify measured pIC50 corresponding to CC1(COC[C@@H](O)c2cnc3c(cnn3-c3ccc(C(=O)O)cc3)c2)CC1 [Compound 106B]
Return: > 7.00

Enquiry: Identify measured pIC50 corresponding to C[S+]([O-])c1cccc(-n2ncc3cc([C@@H](O)COC4CCC4)cnc32)c1 (some centres unmarked) [Compound 125A]
Return: 6.00 to 7.00

Enquiry: Identify measured pIC50 corresponding to C[C@@H](OC1CCC1)[C@@H](O)c1cnc2c(cnn2-c2ccc(C(=O)O)cc2)c1 [Compound 108B]
Return: 6.00 to 7.00

Enquiry: Identify measured pIC50 corresponding to CC(C)(C)OC[C@H](O)c1cnc2c(ccn2-c2cccc(-c3nnc[nH]3)c2)c1 [Compound 31A]
Return: > 7.00

Enquiry: Identify measured pIC50 corresponding to O[C@@H](c1cnc2c(ccn2-c2cc(Cl)cc(-c3nnc[nH]3)c2)c1)C1CCC(F)(F)CC1 [Compound 12A]
Return: > 7.00

Enquiry: Identify measured pIC50 corresponding to CCOC(C)(C)C(O)c1cnc2c(cnn2-c2cccc(-c3nnc[nH]3)c2)c1 (single isomer, unassigned) [Compound 34B]
Return: 6.00 to 7.00

Enquiry: Identify measured pIC50 corresponding to CNC(=O)c1ccc(-n2ncc3cc([C@@H](O)COC4CCC4)cnc32)cc1 [Compound 84B]
Return: 6.00 to 7.00
